details: in 1,4-dioxane, 305.65 K

SMILES_CODE	solubility (mole fraction)
CC1=NN(c2ccc(C)cc2)C(=O)C1	0.0683

###

conditions: in acetonitrile, 305.65 K
METRIC: solubility (mole fraction)

SMILES_CODE	METRIC	OBSERVED_VALUE
CC1=NN(c2ccc(C)cc2)C(=O)C1	solubility (mole fraction)	0.0173

###

settings: in toluene, 290.65 K
METRIC: solubility (mole fraction)

SMILES_CODE	METRIC	OBSERVED_VALUE
CC1=NN(c2ccc(C)cc2)C(=O)C1	solubility (mole fraction)	0.0161

###

details: in n-butanol, 290.65 K
METRIC: solubility (mole fraction)

SMILES_CODE	METRIC	OBSERVED_VALUE
CC1=NN(c2ccc(C)cc2)C(=O)C1	solubility (mole fraction)	0.0294

###

details: in ethanol, 290.65 K

SMILES_CODE	solubility (mole fraction)
CC1=NN(c2ccc(C)cc2)C(=O)C1	0.0229

###

conditions: in isopropanol, 283.15 K

SMILES_CODE	solubility (mole fraction)
CC1=NN(c2ccc(C)cc2)C(=O)C1	0.014

###

settings: in ethylbenzene, 310.65 K

SMILES_CODE	solubility (mole fraction)
CC1=NN(c2ccc(C)cc2)C(=O)C1	0.0356

###

conditions: in n-propanol, 278.15 K

SMILES_CODE	solubility (mole fraction)
CC1=NN(c2ccc(C)cc2)C(=O)C1	0.0177

###

settings: in acetonitrile, 290.65 K

SMILES_CODE	solubility (mole fraction)
CC1=NN(c2ccc(C)cc2)C(=O)C1	0.00927

###

conditions: in ethyl acetate, 300.65 K
METRIC: solubility (mole fraction)

SMILES_CODE	OBSERVED_VALUE
CC1=NN(c2ccc(C)cc2)C(=O)C1	0.0378

###

conditions: in isopropanol, 285.65 K

SMILES_CODE	solubility (mole fraction)
CC1=NN(c2ccc(C)cc2)C(=O)C1	0.0153

###

conditions: in ethanol, 288.15 K

SMILES_CODE	solubility (mole fraction)
CC1=NN(c2ccc(C)cc2)C(=O)C1	0.0209

###

conditions: in n-propanol, 305.65 K
METRIC: solubility (mole fraction)

SMILES_CODE	OBSERVED_VALUE
CC1=NN(c2ccc(C)cc2)C(=O)C1	0.0448

###

settings: in toluene, 295.65 K

SMILES_CODE	solubility (mole fraction)
CC1=NN(c2ccc(C)cc2)C(=O)C1	0.0193

###

details: in ethylbenzene, 313.15 K

SMILES_CODE	solubility (mole fraction)
CC1=NN(c2ccc(C)cc2)C(=O)C1	0.0387

###

conditions: in ethyl acetate, 285.65 K

SMILES_CODE	solubility (mole fraction)
CC1=NN(c2ccc(C)cc2)C(=O)C1	0.0226

###

details: in ethylbenzene, 303.15 K
METRIC: solubility (mole fraction)

SMILES_CODE	METRIC	OBSERVED_VALUE
CC1=NN(c2ccc(C)cc2)C(=O)C1	solubility (mole fraction)	0.0276

###

conditions: in ethanol, 308.15 K

SMILES_CODE	solubility (mole fraction)
CC1=NN(c2ccc(C)cc2)C(=O)C1	0.0403

###

details: in n-propanol, 303.15 K

SMILES_CODE	solubility (mole fraction)
CC1=NN(c2ccc(C)cc2)C(=O)C1	0.0414

Data provenance: BigSolDB 2.1
